Listed here are binders together with their documented IC50.
Experimental Target: Recombinant human Bcl-xL with a 25 amino acid truncation of its C-terminus (human) (UniProt Q07817)
Sequence (Q07817 1-208): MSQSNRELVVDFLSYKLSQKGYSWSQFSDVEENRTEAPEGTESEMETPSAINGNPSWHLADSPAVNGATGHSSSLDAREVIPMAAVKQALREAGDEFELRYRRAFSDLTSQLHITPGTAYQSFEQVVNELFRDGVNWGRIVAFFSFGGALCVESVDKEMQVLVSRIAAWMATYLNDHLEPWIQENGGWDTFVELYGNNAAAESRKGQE
Test: competition phage ELISA
# number only, unit nM dropped from output

Entry QEDIIRNIARHLAQVGDSMARSIPPG [Bid BH3 D20A, phage-displayed] : reported IC50 = ?
13

Entry NLWAAQRYGRELRRMSDAFVDSFKKG [Bad BH3 E18A, phage-displayed] : reported IC50 = ?
4

Entry NLWAAQRYGRELRRMSDEFVDSFKKE [Bad BH3 G26E, phage-displayed] : reported IC50 = ?
3

Entry PSSTMGQVGRQLAIIGDAINRRYDSE [Bak BH3 D18A, phage-displayed] : reported IC50 = ?
33
